- System: NCI-H226 lung
- assayExplanation: NCI tumour cell line growth inhibition, 48 h
quantityKind: TGI (µM)
Give the value, in units of µM, as a plain number.

Q. Which TGI value is on record for COc1cc2c(/C=C3/C(=O)Nc4ccc(O)cc43)c(Cl)n(Cc3ccccc3)c2cc1C ?
A. 15.5

---

- System: UACC-257 melanoma
- assayExplanation: NCI tumour cell line growth inhibition, 48 h
The following compounds are listed with their measured TGI values.

In the examples that follow, each entry is paired with its recorded TGI.
{"compound": "O=C(c1cccc(O)c1O)c1cn(Cc2ccc(F)cc2)c2cccc(O)c12", "TGI": "14.3 µM"}
{"compound": "CC12CCCC(C(=O)O)(C1)[C@H](C(C)(C)C(=O)O)CC2 (stereo partly specified)", "TGI": "> 100 µM"}
{"compound": "CC(=O)Nc1ccc(-c2nc3ccccc3s2)cc1Br", "TGI": "> 100 µM"}
{"compound": "O=C(Nc1ccc(Cl)cc1)c1cc(-c2ccc(F)cc2)c2sc(=O)[nH]c2n1", "TGI": "5.07 µM"}

Could you now look at the following compound, please?
Q. Which TGI value is on record for C/C(Cl)=N/OC(=O)Nc1ccc(F)c([N+](=O)[O-])c1 ?
A. 53.2 µM

---

- Test system: SK-MEL-28 melanoma
- assayExplanation: NCI tumour cell line growth inhibition, 48 h; in the data active = GI50 below about 0.43 µM; inactive = the rest
Response enum: active, inactive

{"compoundStructure": "CCN(CC)c1ccc(C(=N)c2ccc(N(CC)CC)cc2)cc1", "classAssignment": "inactive"}
{"compoundStructure": "CC/C=C\\C[C@@H]1C/C=C2/C(=O)C=C[C@H]2C/C=C\\CCCC(=O)O1", "classAssignment": "active"}
{"compoundStructure": "NCCCC[C@@H]1NC(=O)[C@H]2CCCN2C(=O)[C@H](Cc2ccccc2)NC(=O)[C@H](Cc2ccccc2)CNC1=O", "classAssignment": "inactive"}
{"compoundStructure": "NC(=S)N/N=C/c1ccc(OC(=O)COc2ccc(Cl)cc2)cn1", "classAssignment": "inactive"}
{"compoundStructure": "COc1cc(OC)c(/C=C/C(=O)c2c(OC)cccc2OC)c(OC)c1", "classAssignment": "inactive"}
{"compoundStructure": "CCOC(=O)c1c(CN2CCN(c3ccccc3)CC2)n(-c2ccccc2)c2cc(Br)c(O)cc12", "classAssignment": "inactive"}

Q. Called result for COc1cc[nH]c1/C=C1\C(=O)Nc2ccccc21
A. inactive

Q. Now this one: Cc1ccc(C(=NN=C(N)N)c2ccc(C)cc2)cc1
A. inactive

Q. Now this one: O=C(CCl)Nc1ccc(Cl)cc1
A. inactive

Q. Now this one: NC(N)=NCCCn1c2c(c3ccccc3c1=O)C(=O)c1ccccc1-2
A. inactive

Q. Now this one: O=C(N/N=C/c1cccc(O)c1O)c1ccccc1
A. inactive

Q. Now this one: CCS(=O)(=O)c1ccc(OC)c(Nc2ncc(-c3cccc(C(C)=O)c3)o2)c1
A. inactive

Q. Now this one: Clc1nc(Cl)c2ncn(Cc3cccc(COc4cccc(OCc5cccc(Cn6cnc7c(Cl)nc(Cl)nc76)c5)c4)c3)c2n1
A. inactive

---

- Test system: HCT-15 colon
- assayExplanation: NCI tumour cell line growth inhibition, 48 h; in the data active = GI50 below about 0.43 µM; inactive = the rest
Response enum: active, inactive

{"compoundStructure": "Cc1ccc(/C(=C/C=C(C#N)C#N)Sc2ccc(Cl)cc2)cc1", "assaySystem": "HCT-15 colon", "classAssignment": "inactive"}

Attention now shifts to the item below.
Q. Called result for CCOC(=O)c1c(CN2CCN(c3ccccc3)CC2)n(-c2ccccc2)c2cc(Br)c(O)cc12
A. inactive

Reference source: PubChem BioAssay (NCI)
